Target: T1, human IL-12 (human, UniProt P29460 23-328; P29459 23-219)
T1 construct: also called Interleukin-12
T1 sequence 1: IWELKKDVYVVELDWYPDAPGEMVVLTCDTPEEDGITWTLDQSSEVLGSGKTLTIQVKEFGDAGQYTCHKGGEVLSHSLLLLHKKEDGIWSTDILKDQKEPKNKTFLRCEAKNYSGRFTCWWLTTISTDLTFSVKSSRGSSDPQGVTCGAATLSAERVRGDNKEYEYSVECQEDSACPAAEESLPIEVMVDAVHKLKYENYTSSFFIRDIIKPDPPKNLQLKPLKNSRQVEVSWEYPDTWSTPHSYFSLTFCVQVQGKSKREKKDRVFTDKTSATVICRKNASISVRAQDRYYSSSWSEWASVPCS
T1 sequence 2: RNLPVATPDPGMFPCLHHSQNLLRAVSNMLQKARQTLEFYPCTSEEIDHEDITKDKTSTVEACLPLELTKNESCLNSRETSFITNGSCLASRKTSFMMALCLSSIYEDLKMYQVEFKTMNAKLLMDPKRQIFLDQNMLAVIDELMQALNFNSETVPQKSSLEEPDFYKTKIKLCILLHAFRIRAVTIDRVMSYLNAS
Assay: SPR (Biacore T200), 37 C, pH 7.4; captured antibody, IL-12 analyte
The entries below come with measured pKd values attached.
Scale: negative log10 of molar concentration, which is what pKd denotes.

Anti-IL-12 antibody Ab1 variant L45Q VH/Y49A, Y87L VL (antibody, name in Kabat numbering, V domains shown, Ab1 with VH/VL interface substitutions; Kabat numbering) VH: QVQLVQSGAEVKKPGSSVKVSCKASGGTFSDYYLHWVRQAPGQGQEWMGWIDPENGDTEYAPKFQGRVTITADESTSTAYMELSSLRSEDTAVYYCARNKELRYFDVWGQGTLVTVSS VL: DIVMTQSPLSLPVTPGEPASISCRASQSISINLHWYQQKPGQAPRLLIAFASQSISGVPSRFSGSGSGTDFTLTISSLQPEDFATYLCQQSNSFPLTFGQGTKVEIKR: 8.44

Challenge: Find the recorded pKd belonging to Anti-IL-12 antibody Ab1 variant Y91M VH/- (antibody, name in Kabat numbering, V domains shown, Ab1 with VH/VL interface substitutions; Kabat numbering) VH: QVQLVQSGAEVKKPGSSVKVSCKASGGTFSDYYLHWVRQAPGQGLEWMGWIDPENGDTEYAPKFQGRVTITADESTSTAYMELSSLRSEDTAVYMCARNKELRYFDVWGQGTLVTVSS VL: DIVMTQSPLSLPVTPGEPASISCRASQSISINLHWYQQKPGQAPRLLIYFASQSISGVPSRFSGSGSGTDFTLTISSLQPEDFATYYCQQSNSFPLTFGQGTKVEIKR and report it.
Response given: 9.08
